Just for reference, ChEMBL document CHEMBL1146382 is where these values come from.

- subject of test: Beta-secretase 1 (Homo sapiens) (UniProt P56817)
- Sequence (P56817 whole entry): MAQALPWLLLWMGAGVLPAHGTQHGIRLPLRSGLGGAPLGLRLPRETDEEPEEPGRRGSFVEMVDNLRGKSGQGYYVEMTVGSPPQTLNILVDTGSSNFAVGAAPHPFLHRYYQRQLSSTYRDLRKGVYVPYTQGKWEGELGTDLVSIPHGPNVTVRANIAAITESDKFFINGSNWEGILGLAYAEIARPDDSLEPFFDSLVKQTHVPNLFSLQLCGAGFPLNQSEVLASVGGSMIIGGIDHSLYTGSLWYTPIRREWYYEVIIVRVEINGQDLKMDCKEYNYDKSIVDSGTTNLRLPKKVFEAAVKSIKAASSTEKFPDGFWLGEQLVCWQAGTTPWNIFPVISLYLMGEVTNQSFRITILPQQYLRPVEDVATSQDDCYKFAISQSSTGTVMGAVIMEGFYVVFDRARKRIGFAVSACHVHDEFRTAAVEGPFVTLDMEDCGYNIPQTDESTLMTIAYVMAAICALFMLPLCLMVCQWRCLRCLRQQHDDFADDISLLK
- test summary: Inhibition of human recombinant BACE1 at 2 uM
Numbered stars: 1 amine (or outer) side, 2 acyl side, 3 side chain; on linkers, the order of the positions; unused ones are H or OH. Square brackets hold non-standard residues; d marks the D form. Peptide text beside a SMILES is read from it. X1 = O=C([C@H](O)[C@H](CSc1ccccc1)N[*:1])[*:2]
Each entry gets false if its inhibition stays under 80%, and true if its inhibition is 80% or above.

Solved entries (count: 3):
CC(C)C[C@H](NC(=O)[C@@H](NC(=O)[C@@H](N)CCC(=O)O)C(C)C)C(=O)N[C@@H](CSc1ccccc1)[C@@H](O)C(=O)Nc1cccc(C(=O)O)c1; true
CC(C)C[C@H](NC(=O)[C@@H](NC(=O)[C@@H](N)CNC(=O)c1cc(N)cc(C(=O)O)c1)C(C)C)C(=O)N[C@@H](CSc1ccccc1)[C@@H](O)C(=O)Nc1cccc(C(=O)O)c1; true
CC(C)C[C@H](NC(=O)[C@@H](NC(=O)[C@@H](N)CNC(=O)c1cc(N)cc(C(=O)O)c1)C(C)C)C(=O)N[C@@H](Cc1ccccc1)[C@@H](O)C(=O)Nc1cccc(C(=O)O)c1; true

Please find the next compound below.
# bool: inhibition of CC(C)C[C@H](NC(=O)[C@@H](NC(=O)[C@@H](N)CCC(=O)O)C(C)C)C(=O)N[C@@H](CSc1ccccc1)[C@@H](O)C(=O)N[C@@H](CC(=O)O)C(=O)O (H-EVL[X1]D-OH) >= 80%
false
